Target: CREB-binding protein/Histone acetyltransferase p300 (Homo sapiens, UniProt Q09472+Q92793)
Sequence (Q09472 whole entry, looked up): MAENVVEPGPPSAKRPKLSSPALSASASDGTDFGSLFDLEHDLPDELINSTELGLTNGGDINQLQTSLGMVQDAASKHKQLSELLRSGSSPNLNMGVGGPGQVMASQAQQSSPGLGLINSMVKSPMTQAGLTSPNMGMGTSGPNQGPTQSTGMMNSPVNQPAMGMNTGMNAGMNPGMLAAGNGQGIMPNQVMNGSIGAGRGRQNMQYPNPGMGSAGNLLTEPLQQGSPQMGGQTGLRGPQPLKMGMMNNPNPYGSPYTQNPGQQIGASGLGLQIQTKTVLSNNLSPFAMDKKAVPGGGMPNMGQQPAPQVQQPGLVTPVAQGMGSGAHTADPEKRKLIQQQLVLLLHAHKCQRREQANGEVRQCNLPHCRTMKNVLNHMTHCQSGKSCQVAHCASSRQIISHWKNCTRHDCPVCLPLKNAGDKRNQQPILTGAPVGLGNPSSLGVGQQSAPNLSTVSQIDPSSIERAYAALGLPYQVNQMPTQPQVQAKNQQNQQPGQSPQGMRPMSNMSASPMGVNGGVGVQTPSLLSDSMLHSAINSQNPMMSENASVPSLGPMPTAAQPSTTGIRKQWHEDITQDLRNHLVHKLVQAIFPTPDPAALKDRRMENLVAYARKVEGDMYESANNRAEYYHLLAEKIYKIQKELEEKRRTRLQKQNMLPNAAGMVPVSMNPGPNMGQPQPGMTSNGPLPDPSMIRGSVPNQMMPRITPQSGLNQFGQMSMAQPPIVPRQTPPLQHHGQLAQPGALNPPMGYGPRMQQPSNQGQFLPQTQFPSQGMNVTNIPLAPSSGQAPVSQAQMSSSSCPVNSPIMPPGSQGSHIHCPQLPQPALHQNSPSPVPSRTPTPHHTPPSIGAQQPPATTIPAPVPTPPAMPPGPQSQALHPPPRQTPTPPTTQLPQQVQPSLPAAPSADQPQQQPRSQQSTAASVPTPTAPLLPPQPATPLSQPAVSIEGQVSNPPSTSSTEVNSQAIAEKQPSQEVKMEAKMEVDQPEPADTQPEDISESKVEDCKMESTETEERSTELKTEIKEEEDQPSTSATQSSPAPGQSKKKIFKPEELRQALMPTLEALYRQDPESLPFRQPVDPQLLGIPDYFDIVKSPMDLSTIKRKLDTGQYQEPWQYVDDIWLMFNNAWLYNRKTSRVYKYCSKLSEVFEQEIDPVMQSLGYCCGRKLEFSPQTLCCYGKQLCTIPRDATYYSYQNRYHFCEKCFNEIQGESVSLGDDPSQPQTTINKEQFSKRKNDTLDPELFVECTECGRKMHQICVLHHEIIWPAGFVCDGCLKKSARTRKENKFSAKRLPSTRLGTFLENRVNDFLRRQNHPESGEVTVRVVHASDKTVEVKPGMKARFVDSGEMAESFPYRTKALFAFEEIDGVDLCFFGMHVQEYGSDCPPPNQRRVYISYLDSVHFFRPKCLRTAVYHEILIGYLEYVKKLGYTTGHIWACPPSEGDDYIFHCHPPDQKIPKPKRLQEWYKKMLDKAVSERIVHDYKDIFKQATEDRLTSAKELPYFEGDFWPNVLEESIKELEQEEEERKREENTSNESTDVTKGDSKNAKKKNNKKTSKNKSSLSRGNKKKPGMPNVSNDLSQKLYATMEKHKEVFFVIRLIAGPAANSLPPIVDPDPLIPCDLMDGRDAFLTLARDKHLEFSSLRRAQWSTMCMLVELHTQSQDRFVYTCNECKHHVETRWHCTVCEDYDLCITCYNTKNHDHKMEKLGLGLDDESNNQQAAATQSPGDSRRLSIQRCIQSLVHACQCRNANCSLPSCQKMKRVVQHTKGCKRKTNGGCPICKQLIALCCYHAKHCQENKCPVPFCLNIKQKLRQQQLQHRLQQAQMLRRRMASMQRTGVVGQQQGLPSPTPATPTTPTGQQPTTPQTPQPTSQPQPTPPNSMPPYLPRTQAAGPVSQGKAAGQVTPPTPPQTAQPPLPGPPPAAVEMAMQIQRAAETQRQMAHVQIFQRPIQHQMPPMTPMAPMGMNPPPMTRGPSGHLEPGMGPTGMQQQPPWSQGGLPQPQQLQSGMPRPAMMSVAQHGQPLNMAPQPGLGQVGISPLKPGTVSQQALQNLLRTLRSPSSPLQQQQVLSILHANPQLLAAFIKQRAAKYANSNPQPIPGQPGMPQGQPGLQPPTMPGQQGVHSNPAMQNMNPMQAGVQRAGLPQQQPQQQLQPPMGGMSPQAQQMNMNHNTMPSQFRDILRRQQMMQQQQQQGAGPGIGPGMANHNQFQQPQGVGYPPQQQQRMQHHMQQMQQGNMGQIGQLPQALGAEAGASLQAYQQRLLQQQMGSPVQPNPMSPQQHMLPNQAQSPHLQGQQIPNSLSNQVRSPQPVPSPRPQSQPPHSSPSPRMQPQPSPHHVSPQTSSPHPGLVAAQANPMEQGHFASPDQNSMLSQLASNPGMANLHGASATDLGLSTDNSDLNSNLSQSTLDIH
Sequence (Q92793 whole entry, looked up): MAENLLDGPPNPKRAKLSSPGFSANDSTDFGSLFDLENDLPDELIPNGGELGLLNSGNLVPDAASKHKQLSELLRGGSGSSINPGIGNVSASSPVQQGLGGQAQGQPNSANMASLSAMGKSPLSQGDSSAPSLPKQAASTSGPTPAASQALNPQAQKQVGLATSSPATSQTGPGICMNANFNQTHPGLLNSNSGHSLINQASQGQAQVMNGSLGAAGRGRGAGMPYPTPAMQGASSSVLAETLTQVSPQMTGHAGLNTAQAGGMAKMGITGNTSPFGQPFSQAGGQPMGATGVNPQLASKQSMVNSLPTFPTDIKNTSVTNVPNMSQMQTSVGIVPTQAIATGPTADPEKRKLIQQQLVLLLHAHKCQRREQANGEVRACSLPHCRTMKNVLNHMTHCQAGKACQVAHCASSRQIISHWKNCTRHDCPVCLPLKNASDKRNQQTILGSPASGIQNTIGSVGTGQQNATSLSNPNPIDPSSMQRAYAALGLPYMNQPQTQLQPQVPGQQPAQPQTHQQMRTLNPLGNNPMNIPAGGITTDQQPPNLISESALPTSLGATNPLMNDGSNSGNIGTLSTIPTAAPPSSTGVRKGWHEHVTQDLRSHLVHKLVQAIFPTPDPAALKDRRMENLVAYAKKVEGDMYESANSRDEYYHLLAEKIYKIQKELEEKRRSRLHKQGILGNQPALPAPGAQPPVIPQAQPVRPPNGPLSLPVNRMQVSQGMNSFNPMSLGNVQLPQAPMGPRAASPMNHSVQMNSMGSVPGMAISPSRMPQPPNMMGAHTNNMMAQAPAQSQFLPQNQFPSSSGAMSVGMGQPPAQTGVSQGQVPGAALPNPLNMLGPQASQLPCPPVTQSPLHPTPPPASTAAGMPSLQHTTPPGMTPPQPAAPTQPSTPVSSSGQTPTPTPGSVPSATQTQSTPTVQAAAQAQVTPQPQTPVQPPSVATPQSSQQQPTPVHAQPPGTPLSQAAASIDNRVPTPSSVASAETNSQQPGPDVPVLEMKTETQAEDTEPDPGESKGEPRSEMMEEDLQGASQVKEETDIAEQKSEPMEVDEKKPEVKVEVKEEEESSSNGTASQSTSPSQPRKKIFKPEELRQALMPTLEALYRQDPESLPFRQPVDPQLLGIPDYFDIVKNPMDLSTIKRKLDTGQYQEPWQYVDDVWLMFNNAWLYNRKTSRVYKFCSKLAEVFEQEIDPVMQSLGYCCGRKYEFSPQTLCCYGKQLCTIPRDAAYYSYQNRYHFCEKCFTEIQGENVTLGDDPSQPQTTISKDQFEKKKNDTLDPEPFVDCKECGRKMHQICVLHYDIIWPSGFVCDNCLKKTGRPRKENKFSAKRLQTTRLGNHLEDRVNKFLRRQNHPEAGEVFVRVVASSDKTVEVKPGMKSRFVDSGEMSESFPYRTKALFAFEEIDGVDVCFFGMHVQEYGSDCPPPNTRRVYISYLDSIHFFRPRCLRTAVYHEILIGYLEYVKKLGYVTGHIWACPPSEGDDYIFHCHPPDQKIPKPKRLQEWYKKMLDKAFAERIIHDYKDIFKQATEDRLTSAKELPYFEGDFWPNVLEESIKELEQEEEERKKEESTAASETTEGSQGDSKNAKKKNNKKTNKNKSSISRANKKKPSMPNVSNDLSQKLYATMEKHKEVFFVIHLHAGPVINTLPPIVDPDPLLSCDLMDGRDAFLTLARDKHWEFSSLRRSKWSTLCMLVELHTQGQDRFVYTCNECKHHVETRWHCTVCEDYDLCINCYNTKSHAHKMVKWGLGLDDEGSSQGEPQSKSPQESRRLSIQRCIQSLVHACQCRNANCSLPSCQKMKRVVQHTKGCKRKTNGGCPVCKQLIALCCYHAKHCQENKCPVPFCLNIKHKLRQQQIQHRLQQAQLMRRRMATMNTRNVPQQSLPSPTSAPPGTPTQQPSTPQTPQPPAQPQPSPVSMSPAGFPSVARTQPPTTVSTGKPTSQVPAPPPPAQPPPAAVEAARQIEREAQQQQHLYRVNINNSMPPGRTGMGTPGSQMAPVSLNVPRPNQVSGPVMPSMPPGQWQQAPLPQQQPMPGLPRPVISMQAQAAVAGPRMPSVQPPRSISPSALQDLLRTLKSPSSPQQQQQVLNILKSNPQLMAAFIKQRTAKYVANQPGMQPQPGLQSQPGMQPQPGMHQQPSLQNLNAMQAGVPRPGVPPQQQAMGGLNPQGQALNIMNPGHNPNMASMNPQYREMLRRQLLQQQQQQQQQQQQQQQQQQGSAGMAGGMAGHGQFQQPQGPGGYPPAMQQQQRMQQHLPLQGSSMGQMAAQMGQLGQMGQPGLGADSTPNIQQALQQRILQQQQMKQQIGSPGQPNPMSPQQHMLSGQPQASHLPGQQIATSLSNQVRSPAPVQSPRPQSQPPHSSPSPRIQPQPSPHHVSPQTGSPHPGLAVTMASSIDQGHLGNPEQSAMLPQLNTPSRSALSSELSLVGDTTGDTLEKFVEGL
Experiment: Inhibition of human CBP/P300 expressed in Escherichia coli BL21(DE3)-R3 assessed as change in melting temperature at 10 uM by SYPRO orange dye-based differential scanning fluorimetry
The molecules listed here are annotated with their ΔTm.
experimental.readout: ΔTm (°C)

CCC(=O)N1CCOc2c(cc(-c3cc(OC)cc(OC)c3)cc2C(=O)NCCN(CC)CC)C1 = 5.7
CCC(=O)N1CCOc2c(cc(-c3ccc(OC)c(OC)c3)cc2C(=O)NCCN2CCCCC2)C1 = 4.9
COc1cccc(-c2cc3c(c(OC)c2)OCCN(C(C)=O)C3)c1 = 2.6

----------
Target: CREB-binding protein/Histone acetyltransferase p300 (Homo sapiens, UniProt Q09472+Q92793)
Assay: Inhibition of human CBP/P300 expressed in Escherichia coli BL21(DE3)-R3 assessed as change in melting temperature at 10 uM by SYPRO orange dye-based differential scanning fluorimetry
In this section, each of the compounds is paired with its reported ΔTm.
experimental.readout: ΔTm (°C)

CCC(=O)N1CCOc2c(cc(-c3cc(OC)cc(OC)c3)cc2C(=O)OC)C1 = 5.4
COc1cc(-c2ccc(SC)cc2)cc2c1OCCN(C(=O)C1CC1)C2 = 2.7
COc1cc(-c2ccc(N(C)C)cc2)cc2c1OCCN(C(=O)C1CC1)C2 = 3.3
CCC(=O)N1CCOc2c(cc(-c3nc4ccccc4s3)cc2OC2CCOC2)C1 (centres undefined) = 3.9
COc1ccc(-c2cc3c(c(OC)c2)OCCN(C(=O)C2CC2)C3)cc1C=O = 1.5
COc1cc(-c2ccc(Cl)c(Cl)c2)cc2c1OCCN(C(=O)C1CC1)C2 = 2.7
CO/N=C/c1cc(-c2cc3c(c(OC)c2)OCCN(C(=O)C2CC2)C3)ccc1OC = 6
CCC(=O)N1CCOc2c(cc(-c3ccc(OC)c(OC)c3)cc2C(=O)OC)C1 = 4.7
COc1cccc(-c2cc3c(c(OC4CCN(C)C4)c2)OCCN(C(=O)C2CC2)C3)c1 (centres undefined) = 6.4

----------
Biological target: Bromodomain-containing protein 4 (Homo sapiens)
Test: Inhibition of human BRD4 bromodomain 1 expressed in Escherichia coli BL21(DE3)-R3-pRARE2 assessed as change in melting temperature at 10 uM by SYPRO orange dye-based differential scanning fluorimetry
Listed below: ΔTm values for each entry.
experimental.readout: ΔTm (°C)

COc1cccc(-c2cc3c(c(OC4CCOC4)c2)OCCN(C(=O)C2CC2)C3)c1 (centres undefined) = 1.2
COc1cc(-c2ccnc(N)n2)cc2c1OCCN(C(=O)C1CC1)C2 = 0.6
COc1ccc(-c2cc3c(c(OC)c2)SCCN(C(=O)C2CC2)C3)cc1Cl = 1.4
CCC(CC)C(=O)N1CCOc2c(cc(-c3ccccc3OC)cc2OC)C1 = 0.8

----------
Biological target: Bromodomain-containing protein 4 (Homo sapiens)
Assay: Inhibition of human BRD4 bromodomain 1 expressed in Escherichia coli BL21(DE3)-R3-pRARE2 assessed as change in melting temperature at 10 uM by SYPRO orange dye-based differential scanning fluorimetry
experimental.readout: ΔTm

COc1cc(-c2ccc3c(c2)OCO3)cc2c1OCCN(C(=O)C1CC1)C2 = 1.6 °C
COc1ccc(-c2cc3c(c(OC)c2)OCCN(C(=O)N(C)C)C3)cc1Cl = 1.5 °C
CCC(=O)N1CCOc2c(cc(-c3cccc(Cl)c3)cc2OC)C1 = 0.8 °C
COc1cc(-c2ccc(Cl)c(Cl)c2)cc2c1OCCN(C(=O)C1CC1)C2 = 2.2 °C
CCC(=O)N1CCOc2c(cc(-c3cccc(OC)c3)cc2OCC2CCCN(C)C2)C1 (stereo unspecified) = 1.5 °C
COc1cc(-c2ccc(C)c([N+](=O)[O-])c2)cc2c1OCCN(C(=O)C1CC1)C2 = 1.5 °C

----------
Biological target: CREB-binding protein/Histone acetyltransferase p300 (Homo sapiens, UniProt Q09472+Q92793)
Assay: Inhibition of human CBP/P300 expressed in Escherichia coli BL21(DE3)-R3 assessed as change in melting temperature at 10 uM by SYPRO orange dye-based differential scanning fluorimetry
// reported ΔTm per item
experimental.readout: ΔTm

COc1ccc(-c2cc3c(c(OC)c2)OCCN(C(=O)CO)C3)cc1Cl = 0 °C
CCC(=O)N1CCSc2c(cc(-c3ccc(OC)c(OC)c3)cc2OC)C1 = 4.2 °C
CCC(=O)N1CCOc2c(cc(-c3cccc(Cl)c3)cc2OC)C1 = 3.6 °C
COc1ccc(-c2cc3c(c(OC)c2)OCCN(C(=O)C2CC2)C3)cc1CO = 4.4 °C
CN1CCCC(COc2cc(-c3cccc(Cl)c3)cc3c2OCCN(C(=O)C2CC2)C3)C1 (stereo unspecified) = 4.4 °C
COc1cc(-c2c(OC)cccc2OC)cc2c1OCCN(C(=O)C1CC1)C2 = 3.4 °C
